We begin with a simple list: items and their reported log10(EC50).
- System: RPMI-8226
- ASSAY METHOD TEXT: ATP luminescence proliferation assay, RPMI-8226
- Format: cell-based, human
- CONDITION DETAILS: Homo sapiens, RPMI-8226, 72 h, read-out: EC50 RPMI-8226 (72 h), ATP luminescence, RPMI-8226, 72 h incubation
PARAMETER: log10(EC50) (log10 of the value in nM)

| COMPOUND | TEST SYSTEM | log10(EC50) |
| --- | --- | --- |
| CC[C@H](C)[C@H](NC(=O)[C@H]1CCCCN1C)C(=O)N(C)[C@H](C[C@@H](OC(C)=O)c1nc(C(=O)N[C@@H](Cc2ccc(N)cc2)CC(C)C(=O)O)cs1)C(C)C (stereo partly drawn) | RPMI-8226 | 1.79 |
| CC[C@H](C)[C@H](NC(=O)[C@H]1CCCCN1C)C(=O)N(COC(=O)CC(C)C)[C@H](C[C@@H](OC(C)=O)c1nc(C(=O)N[C@@H](Cc2ccc(N)cc2)CC(C)C(=O)O)cs1)C(C)C (stereo partly drawn) | RPMI-8226 | 0.20 |
| CC[C@H](C)[C@H](NC(=O)[C@H]1CCCCN1C)C(=O)N(C)[C@H](C[C@@H](OC)c1nc(C(=O)NC(Cc2ccccc2)C[C@H](C)C(=O)O)cs1)C(C)C (stereo partly drawn) | RPMI-8226 | 0.41 |
| CC[C@H](C)[C@H](NC(=O)[C@H]1CCCCN1C)C(=O)N(C)[C@H](C[C@@H](OC)c1nc(C(=O)N[C@@H](Cc2ccccc2)C(=O)N[C@@H](C)C(=O)OC)cs1)C(C)C | RPMI-8226 | 0.92 |
| CCCC(NC(=O)c1csc([C@@H](C[C@H](C(C)C)N(C)C(=O)[C@@H](NC(=O)[C@H]2CCCCN2C)[C@@H](C)CC)OC)n1)C(=O)OC (stereo partly drawn) | RPMI-8226 | 1.18 |
| CC[C@H](C)[C@H](NC(=O)[C@H]1CCCCN1C)C(=O)N(C)[C@H](C[C@@H](OC)c1nc(C(=O)N[C@H](CC(=O)OC)Cc2ccccc2)cs1)C(C)C | RPMI-8226 | 2.37 |

----------
- Tested on: CEM-Cl
- ASSAY METHOD TEXT: ATP luminescence proliferation assay, CEM-C1
- Type: cell-based, human
- CONDITION DETAILS: Homo sapiens, CEM/C1, 72 h, read-out: EC50 CEM-C1 (72 h), ATP luminescence, CEM-C1, 72 h incubation
pEC50: −log10 of the molar value.

| COMPOUND | TEST SYSTEM | pEC50 |
| --- | --- | --- |
| CCCC(NC(=O)c1csc([C@@H](C[C@H](C(C)C)N(C)C(=O)[C@@H](NC(=O)[C@H]2CCCCN2C)[C@@H](C)CC)OC)n1)C(=O)OC (stereo partly drawn) | CEM-Cl | 7.59 |
| CC[C@H](C)[C@H](NC(=O)[C@H]1CCCCN1C)C(=O)N(C)[C@H](C[C@@H](OC)c1nc(C(=O)N[C@H](CC(=O)OC)Cc2ccccc2)cs1)C(C)C | CEM-Cl | 6.75 |
| CC[C@H](C)[C@H](NC(=O)[C@H]1CCCCN1C)C(=O)N(C)[C@H](C[C@@H](OC)c1nc(C(=O)NC(Cc2ccccc2)C[C@H](C)C(=O)O)cs1)C(C)C (stereo partly drawn) | CEM-Cl | 8.59 |
| CC[C@H](C)[C@H](NC(=O)[C@H]1CCCCN1C)C(=O)N(C)[C@H](C[C@@H](OC)c1nc(C(=O)N[C@@H](Cc2ccccc2)C(=O)N[C@@H](C)C(=O)OC)cs1)C(C)C | CEM-Cl | 8.06 |
| CC[C@H](C)[C@H](NC(=O)[C@H]1CCCCN1C)C(=O)N(COC(=O)CC(C)C)[C@H](C[C@@H](OC(C)=O)c1nc(C(=O)N[C@@H](Cc2ccc(N)cc2)CC(C)C(=O)O)cs1)C(C)C (stereo partly drawn) | CEM-Cl | 8.92 |
| CC[C@H](C)[C@H](NC(=O)[C@H]1CCCCN1C)C(=O)N(C)[C@H](C[C@@H](OC(C)=O)c1nc(C(=O)N[C@@H](Cc2ccc(N)cc2)CC(C)C(=O)O)cs1)C(C)C (stereo partly drawn) | CEM-Cl | 7.40 |
